System Tested: Luciferin 4-monooxygenase (Photinus pyralis)
Assay Text: firefly luciferase enzyme inhibitors, primary screen, biochemical, luminescence, purified enzyme, 2006 set (AID 1141);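 note: cell-free assay with purified firefly luciferase at 100 ng per well in PBS; test concentration not given here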
Reported Conditions: SteadyGlo luminescence, 30 min, higher = more signal, called active from +8 up or from −8 down
Metric: z-score
Number, no unit, nothing else.

For the compound CCOC(=O)C[C@H]1[C@H](OC(=O)c2ccc(C(=O)c3ccccc3)cc2)[C@@H](NC(=O)c2ccc3ccccc3c2)c2cc(OCCCO)ccc2N1C(=O)c1ccc2ccccc2n1 , what z-score is on record?
-0.818

Which z-score is reported for this compound? [N-]=[N+]=NCc1ccccc1C[C@@]1(C(=O)O)N=C(c2ccc(OCCCO)cc2)O[C@@H]1c1ccccc1CN=[N+]=[N-]
-0.593

Record request: z-score value, item COc1ccc(CCNC(=O)[C@@]2(C)c3ccccc3C(=O)N(Cc3cc(C(F)(F)F)cc(C(F)(F)F)c3)[C@H]2c2ccc(CO)cc2)cc1
-0.868

Return reported z-score; argument: N#Cc1ccc(C(O)C2C=CC3C(=O)NC(=O)C3N2Nc2ccccn2)cc1 (centres undefined)
-1.25

* * *

Provide the recorded composite z-score for the entries that follow.
Assay Text: binders of probe aFGF10 on microarray, primary screen, stem cell growth factor project, biochemical, small-molecule microarray, fluorescence 635/667 (AID 1071);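 note: score merges 667 nm spot intensity and signal to noise from triplicate slides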
Reported Conditions: higher = more signal
// no unit, no text: just the number

Bench note: what composite z-score did [N-]=[N+]=NCc1ccccc1C[C@]1(C(=O)N2CCCCC2)N=C(c2ccc(OCCCO)cc2)O[C@H]1c1ccccc1 show?
0.39

Fill in the blank: the reported composite z-score of CCCCC(O)C1C=CC2C(=O)NC(=O)C2N1Nc1ccccn1 (stereo not drawn) is ____.
0.329

I'd like to know its composite z-score. The molecule in question is O=C1O[C@H](c2ccccc2)[C@H](c2ccccc2)N2[C@H]1[C@@H](C(=O)NC[C@H](O)c1ccccc1)[C@]1(C(=O)Nc3ccc(C#CCCO)cc31)[C@H]2c1ccccc1OCCO
0.453

// lookup composite z-score for COc1ccc(CC[C@H](O)c2cccc(OCC(=O)OC(C)(C)C)c2)cc1
0.359

Return reported composite z-score; argument: Cc1ccc(S[C@]2(C(=O)NCC(F)(F)F)CC(=O)N(C3CCCCC3)[C@@H]2c2ccc(CO)cc2)cc1
0.116

// composite z-score lookup, key: COC(=O)[C@@]1(Cc2ccccc2)[C@@H]2[C@@H](CC(=O)[C@H]2CC(=O)C(=O)N(C)C)CN1C(=O)c1ccccc1
0.281

I am curious: what composite z-score value has been reported for O=C(NCC(F)(F)F)[C@@H]1c2ccccc2C(=O)N(CC23CC4CC(CC(C4)C2)C3)[C@H]1c1ccc(CO)cc1 ?
0.353

Which measured composite z-score value corresponds to O=C1C2C=CC(C(O)c3cccs3)N(Nc3ccccc3)C2C(=O)N1c1ccccc1 (stereo not drawn) ?
0.0873

Sample COCCOC(=O)N1C(=O)[C@@]2(c3cc(C#CC4(O)CCCCCC4)ccc31)[C@H](C(=O)NC[C@H](O)c1ccccc1)[C@H]1C(=O)O[C@H](c3ccccc3)[C@H](c3ccccc3)N1[C@@H]2c1ccc(O)cc1 — what was its composite z-score?
1

I am curious: what composite z-score value has been reported for NCCCC[C@@H]1NC(=O)[C@H]2C[C@@H](C(=O)O)[C@@H](c3cccc(OCCO)c3)N2C1=O ?
0.856

Form field: reported composite z-score of CN1C(=O)[C@]2(CCC(=O)OC(C)(C)C)N=C(c3ccc(OCCCO)cc3)O[C@@H]2c2ccccc21
0.182

I am curious: what composite z-score value has been reported for O=C1C2C=CC(C(O)c3cccc(O)c3)N(Nc3ccccc3F)C2C(=O)N1c1ccccc1 (stereo not drawn) ?
-0.0284

Bench note: what composite z-score did CCCCC(=C=CC[C@H](O)c1ccc(OCCO)cc1)C[C@H](O)c1ccccn1 show?
0.694

Which composite z-score value is on record for CN1C(=O)[C@]2(CCS(=O)(=O)c3ccccc3)N=C(c3ccc(OCCCO)cc3)O[C@@H]2c2ccccc21 ?
0.255

May I ask what composite z-score has been recorded for NC(=O)NCC#Cc1ccc2c(c1)[C@]1(C(=O)N2)[C@H](C(=O)Nc2nc3ccccc3s2)[C@H]2C(=O)O[C@H](c3ccccc3)[C@H](c3ccccc3)N2[C@@H]1c1ccc(OCCO)cc1 ?
0.331

I have this molecule here, Cc1c(NC(=O)/C(C#N)=C/c2ccc(Cl)cc2)c(=O)n(-c2ccccc2)n1C , and I need its recorded composite z-score.
0.589

If you can, please state the reported composite z-score value of CCCCC(O)C1C=CC2C(=O)N(C)C(=O)C2N1Nc1ccccc1 (stereo not drawn) .
0.435

Tell me the measured composite z-score of C=CC[C@]1(C(=O)NCc2ccccc2)COC(c2ccc(OCCCO)cc2)=N1 , please.
-0.588

Given COC(=O)[C@@H]1N=C(c2ccc(OCCCO)cc2)O[C@@H]1c1ccccc1CN=[N+]=[N-] , state its recorded composite z-score.
-0.784

For COCCOC(=O)N1C(=O)[C@@]2(c3cc(C#CCCO)ccc31)[C@H](c1ccc(O)cc1)N1[C@H](c3ccccc3)[C@H](c3ccccc3)OC(=O)[C@H]1[C@@H]2C(=O)N1CCc2cc(OC)c(OC)cc2C1 , what is its reported composite z-score?
0.525

Item C=CCNC(=O)[C@H]1[C@@H]2C(=O)O[C@@H](c3ccccc3)[C@@H](c3ccccc3)N2[C@@H](c2ccccc2OCCO)[C@]12C(=O)N(C(=O)OCCOC)c1ccccc12 has what recorded composite z-score?
0.832

Which composite z-score value is on record for CCCC[C@H]1OB(O)C[C@H]2C1=C(COC)C[C@H]1C(=O)C=CC(=O)[C@H]12 ?
0.183

composite z-score for CC#CCO[Si](C#CCCCCCC)(C(C)C)C(C)C ?
-1.16
